Data provenance is PubChem BioAssay AID623901.

assay: miR-122 suppressors via Renilla sensor increase, primary screen, cell-based, Huh7 psiCHECK-miR122, Renilla luciferase, single point (AID 623901); details: 48 h, at 12.5 µM, active compounds read high;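 also: 0% = median of neutral control wells and 100% = median of positive control wells; higher luciferase signal means stronger suppression of miR-122 activity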
Hit rate of the full screen: of about 340,000 compounds, about 470 (0.14%) were called active. Shown is part of a subset that was picked to be rich in actives.
Quantity name: activation (%)
Give bare numbers, in %.

The following molecules each have a reported value; give each one's activation.
1. CCCNC(=O)N(C)C[C@@H]1Oc2cc(-c3ccccc3)ccc2S(=O)(=O)N([C@H](C)CO)C[C@H]1C
2. C[C@H](O)C#Cc1ccc2c(c1)O[C@H](CN(C)C)[C@@H](C)CN([C@H](C)CO)S2(=O)=O

Ans.
[-13.1, 4.16]

====

assay: miR-122 suppressors via Renilla sensor increase, primary screen, cell-based, Huh7 psiCHECK-miR122, Renilla luciferase, single point (AID 623901); conditions: 48 h, at 12.5 µM;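 also: 0% = median of neutral control wells and 100% = median of positive control wells; higher luciferase signal means stronger suppression of miR-122 activity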
The whole screen tested about 340,000 compounds, of which about 470 (0.14%) were called active.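 How the source made its calls: active means mean activation of 30% or more, with every replicate also reaching 30%; inconclusive means mean activation of 30% or more but some replicate falls short; inactive means the rest.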 The entries come from a sample that favours actives as a whole.
// allowed return values: 1 (active), 0 (inactive)

Qu. For this compound, state the assay outcome: O=C(CC(F)(F)F)N1C[C@H]2[C@@H](c3ccccc31)[C@H](CO)N2C(=O)Cc1cccnc1
Ans. 1

Qu. For this compound, state the assay outcome: COCC#Cc1cnc2c(c1)C(=O)N([C@@H](C)CO)C[C@@H](C)[C@@H](CN(C)C(=O)Nc1ccc(OC)cc1)O2
Ans. 0

Qu. For this compound, state the assay outcome: COc1ccc(C(=O)N2C[C@@H]3[C@H](c4ccccc42)[C@H](CO)N3Cc2ccc3c(c2)OCO3)cc1
Ans. 0

Qu. For this compound, state the assay outcome: COc1ccccc1-c1cnc2c(c1)C(=O)N([C@H](C)CO)C[C@H](C)[C@H](CN(C)C(=O)CN(C)C)O2
Ans. 0

Qu. For this compound, state the assay outcome: COc1ccc(CNS(=O)(=O)c2cc(-c3cc(C)no3)ccc2C(C)C)cc1
Ans. 0

Qu. For this compound, state the assay outcome: CCOC(=O)c1c(C)[nH]c(C)c1S(=O)(=O)NCCCc1ccco1
Ans. 0

Qu. For this compound, state the assay outcome: COCC#Cc1cnc2c(c1)C(=O)N([C@@H](C)CO)C[C@H](C)[C@@H](CN(C)Cc1ccccc1)O2
Ans. 0

Qu. For this compound, state the assay outcome: C[C@H]1CN([C@@H](C)CO)S(=O)(=O)c2ccc(Br)cc2O[C@H]1CN(C)Cc1ccccn1
Ans. 0

====

test: miR-122 suppressors via Renilla sensor increase, primary screen, cell-based, Huh7 psiCHECK-miR122, Renilla luciferase, single point (AID 623901); settings: 48 h, at 12.5 µM, active compounds read high;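 also: 0% = median of neutral control wells and 100% = median of positive control wells; higher luciferase signal means stronger suppression of miR-122 activity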
The whole screen tested about 340,000 compounds, of which about 470 (0.14%) were called active. The sample holds actives, similar compounds and a random draw of the others, so the mix is not that of the screen.
Quantity name: activation (%)
Answers are plain numbers, in %.

# count of solved cases: 6
>  <Compound>
CCCC#Cc1ccc2c(c1)O[C@@H](CN(C)C(=O)c1cccnc1)[C@H](C)CN([C@H](C)CO)S2(=O)=O

>  <U>
%

>  <activation>
-14.9

$$$$
>  <Compound>
C[C@H]1CN([C@@H](C)CO)S(=O)(=O)c2ccc(-c3ccccc3)cc2O[C@H]1CN(C)C(=O)CC1CC1

>  <U>
%

>  <activation>
4.7

$$$$
>  <Compound>
C[C@@H]1CN([C@@H](C)CO)S(=O)(=O)c2ccc(C#CCC3CCCC3)cc2O[C@H]1CN(C)C(=O)CC1CC1

>  <U>
%

>  <activation>
-4.63

$$$$
>  <Compound>
C[C@@H]1CN([C@@H](C)CO)S(=O)(=O)c2ccc(C#Cc3ccc(F)cc3)cc2O[C@H]1CN(C)S(C)(=O)=O

>  <U>
%

>  <activation>
0.672

$$$$
>  <Compound>
COc1ccc(C(C#N)Nc2ccc(C)cc2)cc1 (configuration not stated)

>  <U>
%

>  <activation>
49.7

$$$$
>  <Compound>
CCC(=O)N(C)C[C@@H]1Oc2cc(C#Cc3cccnc3)ccc2S(=O)(=O)N([C@H](C)CO)C[C@@H]1C

>  <U>
%

>  <activation>
-5.93

$$$$

The following compounds each have a reported value; give each one's activation.
1. CNC[C@@H]1Oc2cc(C#CCC3CCCC3)ccc2S(=O)(=O)N([C@H](C)CO)C[C@H]1C
2. C[C@H](CO)N1C[C@H](C)[C@H](CN(C)Cc2ccncc2)Oc2ncc(C#Cc3cccc(F)c3)cc2C1=O
3. C[C@H]1CN([C@@H](C)CO)S(=O)(=O)c2ccc(-c3cccc(C#N)c3)cc2O[C@H]1CN(C)C(=O)c1ccccc1
4. CN1C[C@@H]2[C@H](c3ccccc31)[C@@H](CO)N2C(=O)Nc1ccccc1
5. O=C(NCCCn1ccnc1)c1cc(-c2ccccc2)on1
6. C[C@H]1CN([C@@H](C)CO)C(=O)c2cc(C3=CCCCC3)cnc2O[C@@H]1CN(C)C(=O)c1ccc(F)cc1
7. CCc1ccc(-c2cc(C)no2)cc1S(=O)(=O)NCCc1ccc(S(N)(=O)=O)cc1
8. C/C=C/c1ccc2c(c1)O[C@H](CN(C)C(=O)c1ccc3c(c1)OCO3)[C@@H](C)CN([C@H](C)CO)S2(=O)=O

Ans.
1. 14.9
2. -2.31
3. 4.92
4. 41.7
5. -98.4
6. -3.28
7. -124
8. -10.3

The following compounds each have a reported value; give each one's activation.
1. COc1ccc(/C=C/C(=O)Nc2ccc(C34CC5CC(CC(O)(C5)C3)C4)cc2)cc1OC
2. C[C@@H]1CN([C@@H](C)CO)S(=O)(=O)c2ccc(C#Cc3ccccc3)cc2O[C@@H]1CN(C)C(=O)Nc1ccccc1
3. O=C(CNCCC1=CCCCC1)Nc1ccccc1N1CCCCCC1

Ans.
1: 56.9; 2: -3.74; 3: 76.7
